assay: Pharmacokinetic determination in SD rats (i.v. and i.g.); type: in vivo; conditions: male, Sprague-Dawley (SD), rat, plasma, iv, 1 mg/kg
Measured parameter: AUC(0-inf)

[
  {
    "Molecule": "O=C1c2ccc(Oc3c(Cl)cc(-n4ncc(=O)[nH]c4=O)cc3Cl)cc2CCN1Cc1cccc(C(F)(F)F)c1 [Example 34]",
    "Measured parameter": "AUC(0-inf)",
    "Readout value": "22400 ng·h/mL"
  },
  {
    "Molecule": "O=C1c2ccc(Oc3c(Cl)cc(-n4ncc(=O)[nH]c4=O)cc3Cl)cc2CCN1Cc1cccnc1 [Example 45]",
    "Measured parameter": "AUC(0-inf)",
    "Readout value": "2510 ng·h/mL"
  },
  {
    "Molecule": "O=C1c2ccc(Oc3c(Cl)cc(-n4ncc(=O)[nH]c4=O)cc3Cl)cc2CCN1Cc1ccc(C(F)(F)F)cc1 [Example 29]",
    "Measured parameter": "AUC(0-inf)",
    "Readout value": "56000 ng·h/mL"
  },
  {
    "Molecule": "O=C1c2ccc(Oc3c(Cl)cc(-n4ncc(=O)[nH]c4=O)cc3Cl)cc2CCN1Cc1ccc(F)cc1 [Example 20]",
    "Measured parameter": "AUC(0-inf)",
    "Readout value": "16400 ng·h/mL"
  },
  {
    "Molecule": "O=C1c2ccc(Oc3c(Cl)cc(-n4ncc(=O)[nH]c4=O)cc3Cl)cc2CCN1Cc1ccccn1 [Example 46]",
    "Measured parameter": "AUC(0-inf)",
    "Readout value": "10000 ng·h/mL"
  },
  {
    "Molecule": "O=C1c2ccc(Oc3c(Cl)cc(-n4ncc(=O)[nH]c4=O)cc3Cl)cc2CCN1c1cccnc1 [Example 49]",
    "Measured parameter": "AUC(0-inf)",
    "Readout value": "3730 ng·h/mL"
  }
]
